Provenance of the data: PubChem BioAssay (NCI)

test system: OVCAR-8 ovarian; experiment: NCI-60 one-dose screen, 48 h (100 = growth as untreated, 0 = no growth, -100 = all killed); settings: 10 µM unless noted
The panel holds about 83,000 compounds, 20% with a hit somewhere; the sample as a whole holds those more often.
Assignment: determine reported growth for the given compounds.
Field format: number, assumed %, no unit text.

Fetch value of growth on OVCAR-8 ovarian for `O=C(CCCCCNC1=CC(=O)c2ccccc2C1=O)NCCC[Te]c1ccccc1` .
8.94

Fetch value of growth on OVCAR-8 ovarian for C/C=C(\C)C(=O)O[C@@H]1C(O)[C@H]2OC(COC(=O)CCC(=O)CCCCCC[C@H](CCCCC)O[C@@H]3OC(C)[C@H](OC(C)=O)C(O)[C@H]3O2)[C@H]1OC(=O)/C=C/c1ccccc1 (stereo partly drawn) .
24

Fetch value of growth on OVCAR-8 ovarian for `CC(=O)O[C@H]1CC[C@]2(C)[C@H]3CC[C@]4(C)[C@@H](OC(C)=O)CC[C@H]4[C@@H]3[C@@H](C)[C@]2(O)C1` .
115

Fetch value of growth on OVCAR-8 ovarian for `Cc1cc(N(CCCl)CCCl)ccc1/C=N\NC(=O)c1ccncc1` .
61.9

Fetch value of growth on OVCAR-8 ovarian for `CC[C@H](C)[C@H](NC(=O)N[C@@H](C)c1ccccc1)C(=O)N(C)[C@H](C[C@@H](OC(C)=O)c1nc(C(=O)N[C@@H](Cc2ccccc2)C[C@H](C)C(=O)OC)cs1)C(C)C` .
11.6

Fetch value of growth on OVCAR-8 ovarian for `CNC(=O)Oc1cccc(C(F)(F)F)c1` .
87.6

Fetch value of growth on OVCAR-8 ovarian for CCC1CN1CCCCN1CC1CC (stereo not drawn) .
101

Fetch value of growth on OVCAR-8 ovarian for `CC(=O)[O][Hg][O]C(C)=O` .
98.7

====

test system: M14 melanoma; experiment: NCI-60 one-dose screen, 48 h (100 = growth as untreated, 0 = no growth, -100 = all killed); settings: 10 µM unless noted
This is part of a sample that, as a whole, favours compounds with a hit. Of some 83,000 tested, about 20% had one in any assay.
parameter.measured: growth (%)
Field format: number, assumed %, no unit text.

Give the reported growth for this compound. `NC(N)=N/N=C\c1c[nH]c2ccc(Br)cc12`
94.1

Give the reported growth for this compound. `COc1cc(NCCCN=C(N)N)c2ncccc2c1`
100

Give the reported growth for this compound. `Fc1ccc(N2COOC3(OOC2)C2CC4CC(C2)CC3C4)cc1`
89.5

Give the reported growth for this compound. `O=C(Nc1ccncc1F)c1cn(CC2CC2)c2ccccc12`
108

Give the reported growth for this compound. `Cc1cc(N(CCCl)CCCl)ccc1/C=N\NC(=O)c1ccncc1`
90.4

Give the reported growth for this compound. `CC1(C)N=C(N)N=C(N)N1c1cccc(CCCCc2ccc(Cl)c(S(=O)(=O)F)c2)c1`
39

====

system: IGROV1 ovarian; test: NCI-60 one-dose screen, 48 h; details: 10 µM unless noted
This is part of a sample that, as a whole, favours compounds with a hit. Of some 83,000 tested, about 20% had one in any assay. Active and inactive are the calls of the source. The calls were made as follows: active = growth percent below 10; inactive = the rest.
Thanks in advance; please answer with one of these: active, inactive

Which outcome was entered for the compound `CC(=O)O[C@H]1C(=O)[C@@]2(C)[C@H]([C@H](OC(=O)c3ccccc3)[C@]3(O)C[C@H](OC(=O)[C@H](OC(=O)OC[C@H]4COC(C)(C)O4)[C@@H](NC(=O)c4ccccc4)c4ccccc4)C(C)=C1C3(C)C)[C@]1(OC(C)=O)CO[C@@H]1C[C@@H]2O` in this test?
inactive

Which outcome was entered for the compound `CN1C(=O)N[C@H]2[C@@H]3NC(=O)c4ccc(Br)n4[C@@H]3C[C@]21O` in this test?
active

Which outcome was entered for the compound `CCOC(=O)[C@@H](C)C[C@H](Cc1ccccc1)NC(=O)c1csc([C@@H](C[C@H](C(C)C)N(C)C(=O)[C@@H](NC(=O)[C@H]2CCCCN2C)C(C)(C)CC)OC(C)=O)n1` in this test?
inactive

Which outcome was entered for the compound `CC[C@H](C)[C@H](NC(=O)[C@H]1CCCCN1C)C(=O)N(C)[C@H](C[C@@H](OC(C)=O)c1nc(C(=O)N[C@@H](Cc2ccccc2)C[C@H](C)C(=O)OC)cs1)C(C)C` in this test?
inactive

Which outcome was entered for the compound `CCCC(=O)O[C@@H]1C[C@H]2C[C@@H](O[C@@H]3O[C@@H](C)[C@@H](O)[C@@H](O)[C@H]3OC)C[C@@H](C[C@@H](C)/C=C/C=C\C[C@@H]3O[C@@H](C[C@@H]3C)[C@@H](O)C[C@H]3C[C@@]1(O)C(=O)O3)O2` in this test?
inactive
